ASSAY COMMENT: photoluminescence quantum yield (fraction); solvent given as SMILES
STATED CONDITIONS: in ClCCl
MEASUREMENT KIND: photoluminescence quantum yield

Study these solved cases before continuing.
{"columns": ["SMILES RECORD", "photoluminescence quantum yield"],
 "data": [
  ["COc1ccc(C#Cc2c3cc4ccccc4cc3c(C#Cc3ccc(OC)cc3)c3cc4sc(C)cc4cc23)cc1", 0.64],
  ["CCC1=C(C)C2=C(c3c4ccccc4cc4ccccc34)c3c(C)c(CC)c(C)n3[B-](F)(F)[N+]2=C1C", 0.799],
  ["COc1ccc(/C=C/C2=CC(/C=C/c3ccc(OC)cc3)=[O+][B-](OC(C)=O)(OC(C)=O)O2)cc1", 0.92],
  ["Cc1cc(C)c(C2=C3C=C(/C=C/C(=O)OC(C)(C)C)C=[N+]3[B-](F)(F)n3c2ccc3N2CCCC2)c(C)c1", 0.57],
  ["CCN(CC)c1ccc2c(-c3ccccc3C(=O)O)c3c([o+]c2c1)/C(=C/c1ccc(N(C)C)s1)CCC3", 0.04],
  ["CC(C)(C)c1cc2ccc3c(N(c4ccccc4)c4ccccc4)cc(N(c4ccccc4)c4ccccc4)c4ccc(c1)c2c34", 0.82],
  ["CCCCCCCCCCCCCCCCCCOc1ccc([B-]23NC(c4ccccc4)=Nc4cccc([n+]42)N=C(c2ccccc2)N3)cc1", 0.14],
  ["CN(C)c1cccc(/C=C/c2ncc(-c3ccc(OCc4ccccc4)c(OCc4ccccc4)c3)o2)c1", 0.37],
  ["CC(C)[Si](C#Cc1c2ccccc2c(C#C[Si](C(C)C)(C(C)C)C(C)C)c2nc3c4ccccc4c(=O)c4ccccc4c3nc12)(C(C)C)C(C)C", 0.75],
  ["CCCCn1c(-c2ccc(-c3nnc(-c4ccc5ccccc5c4)o3)cc2)nc2c3ccccc3c3ccccc3c21", 0.75]
]}

QUERY: What value of measured photoluminescence quantum yield is listed for CC(=O)c1c2c(cc3ccc(N(C)C)cc13)CCC2 ?
RESULT: 0.99

QUERY: What value of measured photoluminescence quantum yield is listed for COc1ccc(/C=C/C2=[O+][B-](F)(F)OC(/C=C/c3ccc(OC)cc3)=C2c2ccccc2)cc1 ?
RESULT: 0.41

QUERY: What value of measured photoluminescence quantum yield is listed for CCn1c2ccccc2c2cc(C#Cc3cc(C#Cc4ccc5c(c4)c4ccccc4n5CC)nc(S(C)(=O)=O)n3)ccc21 ?
RESULT: 0.46

QUERY: What value of measured photoluminescence quantum yield is listed for CCCC1=C(CCC)c2cccc3c2c(cc2nc4ccccc4nc23)O1 ?
RESULT: 0.52

QUERY: What value of measured photoluminescence quantum yield is listed for Cc1cccc(C)c1N1C(c2ccccc2)=Cc2cccc[n+]2[B-]1(F)F ?
RESULT: 0.36

QUERY: What value of measured photoluminescence quantum yield is listed for F[B-]1(F)N2C=CN=CC2=[N+]2[N+]1=Cc1c(-c3ccccc3)cc(-c3ccccc3)n1[B-]2(F)F ?
RESULT: 0.49

QUERY: What value of measured photoluminescence quantum yield is listed for CCN(CC)c1ccc2c(-c3ccccc3C(=O)O)c3c([o+]c2c1)/C(=C/c1ccc(N(C)C)cc1)CCC3 ?
RESULT: 0.04
